Measured Kd, listed per entry.
- target: T1, soluble human CD3 epsilon chain (human, UniProt P07766 23-126)
- T1 construct: also called CD3ε
- T1 sequence (P07766 23-126 limits assumed): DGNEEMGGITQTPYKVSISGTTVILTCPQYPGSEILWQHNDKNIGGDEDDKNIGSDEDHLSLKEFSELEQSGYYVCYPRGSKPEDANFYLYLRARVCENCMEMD
- test.details: SPR
observable: Kd (nM)

1. TR01H100-E2702GsKsc/none-Hi-E2704sE/L0011-k0 (antibody, V domains shown, one-arm) VH: QVQLVESGGGLVQPGRSLRLSCAASGFTFSNAWMHWVRQAPGKGLEWVAQIKDKSQNYASYYAESVKGRFTISRDDSKNSLYLQMNSLKTEDTAVYYCRYVHYAAGYGVDAWGQGTTVTVSS VL: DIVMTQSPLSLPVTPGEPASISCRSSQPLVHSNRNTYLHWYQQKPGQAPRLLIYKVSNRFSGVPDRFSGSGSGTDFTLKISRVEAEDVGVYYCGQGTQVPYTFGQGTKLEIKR :: 11.1
2. TR01H107-E22Hh/none-Hi-Kn010G3/L0011-k0 (antibody, V domains shown, one-arm) VH: QVQLVESGGGLVQPGRSLRLSCAASGFTFSNAWMHWVRQAPGKGLEWVAQIKDKSQNYATYQAESVKGRFTISRDDSKNSLYLQMNSLKTEDTAVYYCRYVHYAAGYGVDAWGQGTTVTVSS VL: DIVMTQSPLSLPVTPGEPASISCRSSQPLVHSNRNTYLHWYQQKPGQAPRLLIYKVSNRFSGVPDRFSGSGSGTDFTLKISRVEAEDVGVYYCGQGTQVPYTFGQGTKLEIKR :: 69.1
3. TR01H040-E22Hh/none-Hi-Kn010G3/L0262-k0 (antibody, V domains shown, one-arm) VH: QVQLVESGGGLVQPGRSLRLSCAASGFTFSNAWMHWVRQAPGKGLEWVAQIKDKSQNYATYYAESVKGRFTISRADSKNSIYLQMNSLKTEDTAVYYCRYVHYSASYGVDAWGQGTTVTVSS VL: DIVMTQSPLSLPVTPGEPASISCRSSQPPVHSNRNTYLHWYQQKPGQAPRLLIYKVSNRFSGVPDRFSGSGSGTDFTLKISRVEAEDVGVYYCAQGTQVPYTFGQGTKLEIK :: 18.1
4. TR01H040-E22Hh/none-Hi-Kn010G3/TR01L011-k0 (antibody, V domains shown, one-arm) VH: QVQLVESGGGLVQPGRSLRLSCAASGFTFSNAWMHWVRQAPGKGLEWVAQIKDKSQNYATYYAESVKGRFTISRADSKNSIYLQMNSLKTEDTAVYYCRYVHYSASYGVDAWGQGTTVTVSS VL: DIVMTQSPLSLPVTPGEPASISCQASESLVHSNRNTYLHWYQQKPGQAPRLLIYKVSNRFRGVPDRFSGSGSGTDFTLKISRVEAEDVGVYYCGQGTQVPYTFGQGTKVEIE :: 35.7
5. TR01H040-E22Hh/none-Hi-Kn010G3/L0204-k0 (antibody, V domains shown, one-arm) VH: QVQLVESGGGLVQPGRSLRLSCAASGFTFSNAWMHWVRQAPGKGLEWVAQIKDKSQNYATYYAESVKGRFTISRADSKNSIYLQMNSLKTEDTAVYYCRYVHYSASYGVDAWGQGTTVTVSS VL: DIVMTQSPLSLPVTPGEPASISCRSSQSPVHSNRNTYLHWYQQKPGQAPRLLIYKVSNRFRGVPDRFSGSGSGTDFTLKISRVEAEDVGVYYCGQGTQVPYTFGQGTKLEIKR :: 22.1
